Recorded % inhibition of labeled B4 binding, one value per entry.
target-or-system: T1, CD19 antigen on Daudi lymphoma cells (human, UniProt P15391 20-556)
T1 construct: whole, on cells; also called Daudi cells
T1 sequence (looked up): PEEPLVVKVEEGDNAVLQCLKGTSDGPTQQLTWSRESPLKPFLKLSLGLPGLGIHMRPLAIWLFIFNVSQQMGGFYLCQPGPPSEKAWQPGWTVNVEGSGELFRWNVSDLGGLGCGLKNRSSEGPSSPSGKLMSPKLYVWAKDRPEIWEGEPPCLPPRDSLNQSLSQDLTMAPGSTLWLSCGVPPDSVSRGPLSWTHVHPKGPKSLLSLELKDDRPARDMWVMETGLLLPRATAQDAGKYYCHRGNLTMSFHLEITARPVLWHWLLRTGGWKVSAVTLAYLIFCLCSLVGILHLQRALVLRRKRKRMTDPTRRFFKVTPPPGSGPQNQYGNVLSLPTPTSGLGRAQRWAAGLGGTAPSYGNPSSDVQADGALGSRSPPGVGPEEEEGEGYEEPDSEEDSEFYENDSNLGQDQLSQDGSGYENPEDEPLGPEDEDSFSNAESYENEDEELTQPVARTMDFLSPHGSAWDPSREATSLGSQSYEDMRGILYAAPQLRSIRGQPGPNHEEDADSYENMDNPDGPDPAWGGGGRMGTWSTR
method-notes: FACS competition on Daudi cells; unlabeled antibody 100 ng/ml (1x) vs competitor biotin-B4 VH0/VK0 100 ng/ml
# number only, unit % dropped from output

Worked examples follow.
binder | % inhibition of labeled B4 binding, %
B4 VHv2/VKv1 antibody (antibody, V domains shown) VH: QVQLQQPGAEVVKPGASVRLSCKTSGYTFTSNWMHWVKQRPGQGLEWIGEIDPSDSYTNYNQKFKGKAELTVDKSSSTAYMEVSDLTSEDSAVYYCARGSNPYYYAMDYWGQGTSVTVSS VL: QIALTQEPAIMSASPGEKVTMTCSASSGVNYMHWYQQKPGTSPKRWIYDTSKLDSGVPARFSGSGSGTSYSLTISSMEAEDAATYYCHQRGSYTFGGGTKLEIK | 16
B4 VHv1/VKv2 antibody (antibody, V domains shown) VH: QVQLQQPGAEVVKPGASVRLSCETSGYTFTSNWMHWVKQRPDQGLEWIGEIDPSDSYTNYNQKFKGKAELTVDKSSSTAYMEVSDLTSEDSAVYYCARGSNPYYYAMDYWGQGTSVTVSS VL: DIVLTQSPATLSASPGEKVTMTCSASSGVNYMHWYQQKPGTSPKRWIYDTSKLDSGVPARFSGSGSGTSYSLTISSMEAEDAATYYCHQRGSYTFGGGTKLEIK | 20

[ask] Return reported % inhibition of labeled B4 binding; argument: B4 VHv2/VKv2 antibody (antibody, V domains shown) VH: QVQLQQPGAEVVKPGASVRLSCKTSGYTFTSNWMHWVKQRPGQGLEWIGEIDPSDSYTNYNQKFKGKAELTVDKSSSTAYMEVSDLTSEDSAVYYCARGSNPYYYAMDYWGQGTSVTVSS VL: DIVLTQSPATLSASPGEKVTMTCSASSGVNYMHWYQQKPGTSPKRWIYDTSKLDSGVPARFSGSGSGTSYSLTISSMEAEDAATYYCHQRGSYTFGGGTKLEIK
[reply] 16
